Test system: MS2 coat protein
Experiment: apparent KD of MS2 coat protein; designed switch direction (-1 OFF switch, 1 ON switch): 1; higher = weaker reporter binding
Conditions: input ligand: FMN 200 uM
Listed here are sequences together with their documented apparent KD of MS2 coat protein.
// return numeric value only (unit: nM, not printed)

Some entries whose results are on file:
1. UUAUCCUUUUUUUACAUGAGGAUCACCCAUGUUUUUCUUACGUAGGAUAUCGUUGUUUUUUUUUACGAGAAGGACGUAGUAUGU [JR_SSND3_Sub062] (Eterna round: R96, puzzle: Same State NG 3) = 35.8
2. GCCAACUCAUGAGGAUAUGGCACCUUAUUGGUGCCAGAAGGCAUGUCUAUUGACAUGAGGAUCACCCAUGUAUUAUUGUUGGCA [Fiskers NG1ss - 24] (Eterna round: R96, puzzle: Same State NG 1) = 80
3. GUGGUCAGACAUGAGGAUCACCCAUGUGGAAUAAAUAACACAGAGGAUAUGGAAUAUAAAAUAUACCAGAAGGCUGGAUUGGUG (Eterna round: R96, puzzle: Same State NG 3) = 131
4. CCCUGAGGCAGCCUACAGGGACAUGAGGAUCACCCAUGUACACAGGAUAUCGAGGGCUCCGCCCUCGAGAAGGGUGAUCAGACU [Redied] (Eterna round: R96, puzzle: Same State NG 3) = 321
5. GUAAUAAAGGAAGGAUAUGGGUAAACGGGAAUCCCAGAAGGUCCACAUGAGGAUCACCCAUGUGGUCCCGAAACCACGGGACCG [Enbive] (Eterna round: R96, puzzle: Same State NG 1) = 84.2
6. UGAAUAUUUACAGGAUAUGAGUUGUAUAGUGGGUCAGAAGGGUGGGUGUUUUGCACGGUGUGUUACAUGAGGAUCACCCAUGUU [SameState NG1 #27] (Eterna round: R96, puzzle: Same State NG 1) = 129
7. CCGAUCUACCGAAAGGUAGAUGGGCUUGUACAUGAGGAUCACCCAUGUCAGUACAAGCUUUUUGCUCCUCUUAUCCU [salish99-hsa-208a-40] (Eterna round: R96, puzzle: Sensor for hsa-mir-208a) = 41.8
8. GAAAAGACAUGAGGAUCACCCAUGUGGUAGACAGCUAGACGCAAGGAUAUGCAUGUGAUUCUCAUGCAGAAGGUGCUUCUAGGU [Eternabot solution 12] (Eterna round: R96, puzzle: Same State NG 3) = 37.6

Challenge: Query the reported apparent KD of MS2 coat protein for MS2 coat protein; item: GGUGGGUUACUACCCACACAUGAGGAUCACCCAUGUUUUGGGAAGGAUAUGGUACCUAUUUGGUACCAGAAGGUCCUGUUGGUG [SS-NG3-LRO14] (Eterna round: R96, puzzle: Same State NG 3)
Response given: 702
